Below, each entry is listed alongside its reported GFP response relative to DMSO.
# assay: LAP4-GFP expression modulators in yeast, confirmation, cell-based, cherry picks, flow cytometry, mother/daughter gates (AID 2271);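 note: ratio of sample to DMSO plate mean so 100% equals DMSO level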
# condition: S. cerevisiae LAP4-GFP strain, 3 h, at 10 µM, stronger effect = higher value, 100 means same as DMSO control
Please respond with the number in % and leave the unit unwritten.

Please review the following examples before continuing.
[[record]]
molecule = "O=C(Oc1oc(-c2ccco2)nc1C=Nc1ccccc1)c1ccco1"
measured_attribute = "GFP response relative to DMSO"
unit_abbreviation = "%"
result = 160

[[record]]
molecule = "Cc1cccc(N=c2c([N+](=O)[O-])nn(-c3ccc(Cl)cc3)n2O)c1"
measured_attribute = "GFP response relative to DMSO"
unit_abbreviation = "%"
result = 111

[[record]]
molecule = "CCN(CC(O)Cn1c2ccccc2c2ccccc21)S(=O)(=O)c1ccc(F)cc1 (stereo not drawn)"
measured_attribute = "GFP response relative to DMSO"
unit_abbreviation = "%"
result = 108

[[record]]
molecule = "Cc1ccc(S(=O)(=O)/N=C(\\Sc2ccccc2)c2ccccc2)cc1"
measured_attribute = "GFP response relative to DMSO"
unit_abbreviation = "%"
result = 151

[[record]]
molecule = "Oc1ccc(-c2nc3ccccn3c2NCc2ccco2)cc1"
measured_attribute = "GFP response relative to DMSO"
unit_abbreviation = "%"
result = 101


Prompt line: Form field: reported GFP response relative to DMSO of O=C1CC(Sc2ncccn2)C(=O)N1c1ccccc1C(F)(F)F (stereo not drawn)
Response line: 98.7

Prompt line: Again, but for COc1cccc(CC(=O)OC(C)C(=O)Nc2ncc(Cl)cc2Cl)c1 (stereo not drawn)
Response line: 96.2

Prompt line: Would you kindly repeat that for O=C(/C=C/c1c(F)cccc1Cl)c1ccc(O)cc1 ?
Response line: 144

Prompt line: Same lookup for [O-][n+]1cccc2c(Br)cc(Br)c(O)c21 , please.
Response line: 258

Prompt line: Try this molecule too: O=C(Nc1cccc(O)c1)c1ccc(Br)cc1
Response line: 98.8

Prompt line: And for COC(=O)c1ccc(/C=C/C(=O)c2cccc(OC)c2)cc1 ?
Response line: 117

Prompt line: Also O=C(OCn1ncc(Br)c(Br)c1=O)c1c(F)cccc1F , if possible.
Response line: 168

Prompt line: Queued: Cc1cc(C)c(S(C)(=O)=O)c(S(=O)(=O)c2ccc(Cl)cc2)n1
Response line: 99.2

###

Measured GFP response relative to DMSO accompanies every entry in the list below.
# assay: LAP4-GFP expression modulators in yeast, confirmation, cell-based, cherry picks, flow cytometry, mother/daughter gates (AID 2271);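 note: ratio of sample to DMSO plate mean so 100% equals DMSO level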
# condition: S. cerevisiae LAP4-GFP strain, 3 h, measured here: mother cell gate response, at 10 µM, stronger effect = higher value, 100 means same as DMSO control
Answer in %, number only, no unit symbol.

[[record]]
compound = "O=C(O)CSC1CC(=O)N(c2cccc(Cl)c2)C1=O (stereo unspecified)"
measured_attribute = "GFP response relative to DMSO"
result = 104

[[record]]
compound = "CC(=O)c1ccc(N2CCN(S(=O)(=O)c3ccc4c(c3)CC(C)N4C(C)=O)CC2)cc1 (stereo unspecified)"
measured_attribute = "GFP response relative to DMSO"
result = 98.4

[[record]]
compound = "NC1=NC(=O)C(CC(=O)c2ccc(Cl)cc2)S1 (stereo unspecified)"
measured_attribute = "GFP response relative to DMSO"
result = 107

[[record]]
compound = "CCC(C)(C)n1nnnc1C(c1ccc(O)c(OC)c1)N1CCc2ccccc2C1 (stereo unspecified)"
measured_attribute = "GFP response relative to DMSO"
result = 117

[[record]]
compound = "CCc1nnc(NC(=O)c2nc(S(=O)(=O)Cc3ccc(C)cc3)ncc2Cl)s1"
measured_attribute = "GFP response relative to DMSO"
result = 102

[[record]]
compound = "Cc1ccc(NC(=S)c2nc3ccccc3[nH]2)cc1"
measured_attribute = "GFP response relative to DMSO"
result = 128


Prompt line: Would you kindly share the measured GFP response relative to DMSO for Clc1ccc(-n2cccc2)cn1 ?
Response line: 95.2

Prompt line: What about O=C(Nc1nc(-c2ccccn2)cs1)c1cc2ccccc2o1 ?
Response line: 215

Prompt line: Next: O=C(Nc1ccc(NC(=O)c2cc3ccccc3o2)cc1)c1ccco1
Response line: 97.3

Prompt line: Now the compound O=c1c2ccccc2nc(-c2ccccc2)n1CCN1CCOCC1
Response line: 98.4

Prompt line: // same read-out, input: CN1c2ccsc2/C(=N/Nc2ccc(F)cc2)CS1(=O)=O
Response line: 134

###

In this section, each of the molecules is paired with its reported GFP response vs DMSO.
# assay: RPL19A-GFP modulators, yeast TOR pathway, confirmation, cell-based, S. cerevisiae, flow cytometry, cherry picks, mother/daughter gates (AID 2270)
# condition: S. cerevisiae RPL19A-GFP strain, 3 h, measured here: mother cell gate, at 10 µM, stronger effect = lower value, 100 = same GFP as DMSO wells
Write the quantity with the unit trailing the number.

Reference set (5 entries):
[[record]]
molecule = "Fc1ccccc1-c1nc(NCCCN2CCOCC2)c2ccccc2n1"
result = "95.6%"

[[record]]
molecule = "COc1ccc(N=Cc2cc(Cc3ccccc3Cl)cc([N+](=O)[O-])c2O)cc1OC"
result = "86.5%"

[[record]]
molecule = "CCCc1[nH]nc2c1C(c1ccc(OC(=O)c3ccco3)cc1)C(C#N)=C(N)O2 (configuration not stated)"
result = "101%"

[[record]]
molecule = "Cc1nn(C(=O)c2ccco2)c(C)c1Sc1ccccc1"
result = "94.4%"

[[record]]
molecule = "O=C1CC(Sc2nnnn2C2CCCCC2)C(=O)N1c1ccccc1 (configuration not stated)"
result = "94.8%"


Prompt line: I'd like to know its GFP response vs DMSO. The molecule in question is O=C(OCc1cccc([N+](=O)[O-])c1)c1cnccn1
Response line: 97.1%

Prompt line: Entry COc1cccc2c1Oc1ncccc1N(C(=O)CCC(=O)NCc1cccc(C)c1)C2 please
Response line: 99.2%

###

# assay: modulators of CIT2-GFP expression in yeast, confirmation, S. cerevisiae, GFP fusion, cherry picks, mother/daughter gates (AID 2274)
# condition: S. cerevisiae CIT2-GFP strain, flow cytometry, 3 h; at 10 µM; stronger effect = higher value
Calls of active or inactive are those of the source.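 How the source made its calls: active means GFP response above 150% of the DMSO level; inconclusive means fewer than 70 events counted for a yeast strain; inactive means the rest.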
measured-attribute: GFP response, % of DMSO

Consider the reported GFP response, % of DMSO for these compounds:
[[record]]
compound = "O=C(Nc1ccccc1)c1ccccc1O"
result = "93.1% (inactive)"

[[record]]
compound = "CCNC(=O)/C(C#N)=C/c1c(N2CCOCC2)nc2ccccn2c1=O"
result = "100% (inactive)"

[[record]]
compound = "CC(=O)[C@@]1(O)CC[C@H]2[C@@H]3CCC4=CC(=O)CC[C@]4(C)[C@H]3CC[C@@]21C"
result = "100% (inactive)"

[[record]]
compound = "CC(C)(C)C(=O)NC(=S)NNC(=O)c1sc2ccccc2c1Cl"
result = "106% (inactive)"

[[record]]
compound = "Cc1ccc(C2=NOC(=O)/C2=C\\c2ccc(C)o2)cc1"
result = "87.2% (inactive)"

[[record]]
compound = "CCNC(=O)c1ccccc1-c1nc(-c2ccccc2Cl)no1"
result = "98.6% (inactive)"


Attention now turns to another entry.
Prompt line: State the recorded GFP response, % of DMSO for this entry: CC1CCCCN1S(=O)(=O)c1ccc(C(=O)Nc2nnc(-c3ccccc3Cl)o2)cc1 (stereo not drawn)
Response line: 99.7% (inactive)

###

Measured GFP response, % of DMSO, listed per entry.
# assay: modulators of CIT2-GFP expression in yeast, confirmation, S. cerevisiae, GFP fusion, cherry picks, mother/daughter gates (AID 2274)
# condition: S. cerevisiae CIT2-GFP strain, flow cytometry, 3 h; at 10 µM; stronger effect = higher value
The source made the active and inactive calls.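 The calls were made as follows: active = GFP response above 150% of the DMSO level; inconclusive = fewer than 70 events counted for a yeast strain; inactive = the rest.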

The following compounds have reported results that may help.
[[record]]
compound = "Cc1ncc2c(n1)-c1cc(F)ccc1SC2"
measured_attribute = "GFP response, % of DMSO"
result = "113% (inactive)"

[[record]]
compound = "CCc1ccc(OCC(=O)NNC(=S)NC(=O)C2CC2)c(Br)c1"
measured_attribute = "GFP response, % of DMSO"
result = "115% (inactive)"

[[record]]
compound = "COCCNC(=O)c1ccccc1-c1nc(-c2ccccc2Cl)no1"
measured_attribute = "GFP response, % of DMSO"
result = "105% (inactive)"

[[record]]
compound = "Cc1cc(O)c(C(=O)/C=C/c2ccccc2)c(=O)o1"
measured_attribute = "GFP response, % of DMSO"
result = "96.5% (inactive)"

[[record]]
compound = "CCc1nnc(NC(=O)c2ccc(S(=O)(=O)N(C)Cc3ccccc3)cc2)o1"
measured_attribute = "GFP response, % of DMSO"
result = "103% (inactive)"


Prompt line: Look up GFP response, % of DMSO for this compound: COC(=O)c1cc(NC(=O)c2c(Cl)nc3sccn23)cc(C(=O)OC)c1
Response line: 99.7% (inactive)

Prompt line: Lookup C=CCOc1ccccc1C(=O)/C=C1/C(=O)Nc2ccccc21
Response line: 91.5% (inactive)

Prompt line: Entry S=c1[nH]nc(-c2ccco2)n1/N=C/C(Cl)=C/c1ccccc1 please
Response line: 97.8% (inactive)
